- test protocol: Selectivity index, ratio of CC50 for human A549 or Mesocricetus auratus BHK21 cells to EC50 for antiviral activity against DENV-2 infected in A549or Mesocricetus auratus BHK21 cells
- Type: toxicity
- details: read-out: Ratio CC50/EC50
Output schema: class label derived from selectivity ratio. Mapping: b0: < 5; b1: ≥ 5 and < 8; b2: ≥ 8

- CC1(C)CC(Nc2nccc(NCc3ccc(Cl)cc3)n2)CC(C)(C)N1: b2
- COc1ccc(CNc2ccnc(NC3CC(C)(C)NC(C)(C)C3)n2)cc1: b0
- Cc1ccc(CNc2ccnc(NC3CC(C)(C)NC(C)(C)C3)n2)cc1: b0
- Clc1ccc(Nc2ccnc(NCCN3CCOCC3)n2)cc1: b0
- O=C(Nc1ccnc(NCCN2CCOCC2)n1)c1ccc(-c2ccccn2)s1: b0
- CC1(C)CC(Nc2nccc(NCc3ccc(F)cc3)n2)CC(C)(C)N1: b1
- c1ccc(-c2ccc(Nc3ccnc(NCCN4CCOCC4)n3)cc2)cc1: b1
- Cc1ccc(-c2ccc(Nc3ccnc(N4CCN(C)CC4)n3)cc2)cc1: b1
- Clc1ccc(-c2ccc(Nc3ccnc(NCc4cccnc4)n3)cc2)cc1: b1
- CC1(C)CC(Nc2nccc(Nc3ccc(-c4ccc(Cl)cc4)cc3)n2)CC(C)(C)N1: b2
- CC1(C)CC(Nc2nccc(Nc3ccc(-c4cccc(Cl)c4)cc3)n2)CC(C)(C)N1: b2
- Clc1ccc(-c2ccc(Nc3ccnc(NCCN4CCCCC4)n3)cc2)cc1: b2
- CC1(C)CC(Nc2nccc(Nc3ccc(Cl)cc3)n2)CC(C)(C)N1: b2

* * *

- test protocol: Selectivity index, ratio of CC50 for human A549 or Mesocricetus auratus BHK21 cells to EC50 for antiviral activity against DENV-2 infected in A549or Mesocricetus auratus BHK21 cells
- Type: toxicity
- details: read-out: Ratio CC50/EC50
Examples of compounds with documented selectivity ratio follow.
measured attribute: selectivity ratio

* Clc1cccc(-c2ccc(Nc3ccnc(NCc4cccnc4)n3)cc2)c1 | 5
* Cc1ccc(-c2ccc(Nc3ccnc(NCCN4CCOCC4)n3)cc2)cc1 | 5
* Clc1ccc(/C=N/Nc2ccnc(NCCN3CCOCC3)n2)c(Cl)c1 | 8
* Cc1ccc(-c2ccc(Nc3ccnc(NC4CC(C)(C)NC(C)(C)C4)n3)cc2)cc1 | 8
* CN1CCN(c2nccc(Nc3ccc(-c4ccc(Cl)cc4)cc3)n2)CC1 | 5
* CN1CCN(c2nccc(Nc3ccc(-c4cccc(Cl)c4)cc3)n2)CC1 | 5
